Data provenance: PubChem BioAssay (NCI)

system: HT29 colon; test: NCI-60 one-dose screen, 48 h (100 = growth as untreated, 0 = no growth, -100 = all killed); settings: 10 µM unless noted
The panel holds about 83,000 compounds, 20% with a hit somewhere; the sample as a whole holds those more often.
Listed here are compounds together with their documented growth.
Reported property: growth (%)

Compound | Tgt | Measured number
CNC(C)[C@H]1CCC2C3CCC4C[C@@H](N(C)C(=O)c5ccccc5)CC[C@]4(C)C3CC[C@@]21C (some centres undefined) | HT29 colon | -33.3
COc1cc(CNS(=O)(=O)c2ccc(C)cc2)ccc1OCc1cn(-c2ccccc2)nn1 | HT29 colon | 103
O=C1c2cccc3cccc(c23)C(=O)N1Nc1nc(N2CCOCC2)nc(N2CCN(c3ccccc3)CC2)n1 | HT29 colon | 24.3
C=CCc1cc(C)ccc1NC(C(=O)NCC(=O)OC)c1ccccc1 (centres undefined) | HT29 colon | 98.4
COc1ccccc1/C=C1\Oc2cc(OCCN3CCC(Cc4ccccc4)CC3)ccc2C1=O | HT29 colon | 31.2
O=CN1N=C(c2ccc(Nc3ccnc4cc(Cl)ccc34)cc2)CC1c1ccccc1 (centres undefined) | HT29 colon | 11.6
O=C(Cc1ccc(F)c(Cl)c1)Nc1cc(C2(C(F)(F)F)CC2)nn1CC1CCCCC1 | HT29 colon | 8.71
C=C1CC[C@@]2(C#N)[C@H]3[C@H](CC[C@@H]2C)[C@@H](C)C[C@@H](CC(C)(C)C#N)[C@H]13 | HT29 colon | 46.8
c1ccc2c(-c3nc(-c4c[nH]c5ccncc45)cs3)c[nH]c2c1 | HT29 colon | 2.05
CC([C@H]1CCC2C3CCC4C[C@@H](NC=O)CC[C@]4(C)C3CC[C@@]21C)N(C)C (some centres undefined) | HT29 colon | -49.4
CCCCNC(=O)Oc1ccc(/C(=C(\C)c2ccc(Cl)cc2)c2ccc(OCCN(CC)CC)cc2)cc1 | HT29 colon | -10.2
O=c1[nH]c2c(ccc3cnccc32)c2c1CCC2 | HT29 colon | 7.54
CCOC(=O)c1c(C)nc2c(c1N)CC(=O)N2Cc1ccc(F)cc1 | HT29 colon | 90
CCCCCCNC(=O)Oc1ccc(/C(=C(\C)c2ccc(Cl)cc2)c2ccc(OCCCN(C)C)cc2)cc1 | HT29 colon | 0.63
Cc1ccc(/C=C2\Oc3ccc(O)c(O)c3C2=O)cc1 | HT29 colon | 87.8
COC(=O)CCC/C=C\C[C@H]1C=CC(=O)/C1=C/C[C@@H](O)CCc1cccc(C(F)(F)F)c1 | HT29 colon | -30.6
CN(C)CCN1CCN(c2ncccc2C2Nc3ccccc3-n3cccc32)CC1 (centres undefined) | HT29 colon | 101
COc1ccc(-c2cc(-c3ccc(Cl)cc3)c(C#N)c(=O)n2CCCCCC(=O)Nc2ccccc2N)cc1 | HT29 colon | 14.8
O=c1c2cc(F)ccc2sc2c(NCCN3CCOCC3)nc3ccccc3c12 | HT29 colon | 21.6
CC([C@H]1CCC2C3CCC4C(=O)C(NC=O)=CC[C@]4(C)C3CC[C@@]21C)N(C)C (some centres undefined) | HT29 colon | -20.2
NCCCNc1nc2ccccc2c2c(=O)c3cc(OC(F)(F)F)ccc3sc12 | HT29 colon | -32.9
Brc1ccc2[nH]cc(-c3nc(-c4c[nH]c5ccncc45)cs3)c2c1 | HT29 colon | -63.2
CCOC(=O)NCCc1ccccc1 | HT29 colon | 102
COc1cc(/C=C2\C(=O)Nc3ccc(Br)cc32)cc(OC)c1OC | HT29 colon | 24.4
CCOc1c(B(O)O)cccc1-c1nc2ccc3[nH]ncc3c2c2c1CCCC2 | HT29 colon | 78.7
COc1cccc(-c2nc(-c3ccc(NS(=O)(=O)c4ccccc4)cc3)[nH]c2-c2ccnc(Br)c2)c1 | HT29 colon | 32.8
CSc1ccc2c(c1)c(CCN)c(C)n2Cc1ccc(Cl)c(Cl)c1 | HT29 colon | -82.9
CCCCn1c(=O)c(-c2cc(-c3ccc(Cl)cc3)nc(-c3ccc(Cl)cc3)c2)cc2cc(C)ccc21 | HT29 colon | 101
C=C1CC[C@H](C(C)C)[C@@H]2[C@H]1[C@H]1CC(=C)[C@@H](O)CC[C@@](C)(O)[C@@H]2O1 | HT29 colon | 101
Clc1ccc2c(c1)N(CCCN1CCCC1)c1ccccc1S2 | HT29 colon | 21
COc1cccc(-c2nc(-c3ccc(NC(=O)C(C)C)cc3)[nH]c2-c2ccnc(Br)c2)c1 | HT29 colon | 23
COc1ccc(C2C(N)=NNC2c2cccc(O)c2)cc1 (centres undefined) | HT29 colon | 104
C#C[C@]1(O)CC[C@H]2[C@@H]3CC=C4c5sc(Nc6cc(F)ccc6F)nc5CC[C@]4(C)[C@H]3CC[C@@]21C | HT29 colon | 8.03
CCOC(=O)c1c2c(n(-c3ccc(C#N)cc3)c1-c1ccccc1)C=CCC2 | HT29 colon | 68.2
Cc1ccc(-c2nn(C)c(=O)c3noc(-c4ccc(C)cc4)c23)cc1 | HT29 colon | 9.47
Cc1c(C(=O)NCCCc2ccccc2)sc2ncc(-c3ccc(Br)cc3)n12 | HT29 colon | 120
Cc1cc2nc3ccc(N=Nc4ccc(N(C)C)cc4)cc3n(-c3ccccc3)c-2cc1=N | HT29 colon | -67
Cc1nn(-c2ccccc2)c(-n2ccnc2)c1/C=N/Nc1nc(-c2ccc(F)cc2)cs1 | HT29 colon | 81.2
CCCCOc1ccc(/C=N/NC(N)=S)cc1 | HT29 colon | 61.5
